Target: T1, human PD-L1-ECD/His (human, UniProt Q9NZQ7 19-238)
T1 construct: Expressed in 293-F cells; also called PD-L1/His; human PD-L1/His
T1 sequence (Q9NZQ7 19-238): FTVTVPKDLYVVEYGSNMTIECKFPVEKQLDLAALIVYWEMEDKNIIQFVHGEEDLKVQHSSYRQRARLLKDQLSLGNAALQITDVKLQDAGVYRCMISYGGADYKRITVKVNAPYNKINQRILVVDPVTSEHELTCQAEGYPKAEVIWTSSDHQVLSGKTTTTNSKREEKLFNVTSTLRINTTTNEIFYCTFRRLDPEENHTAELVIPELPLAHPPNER
Experiment: SPR (BIAcore T-200), human PD-L1/His on CM5 chip, Fab injected
Exercise: state measured koff for each of the binders provided.
Give bare numbers, in s⁻¹.

Consider the following illustrative entries.
Binder	koff [s⁻¹]
hu333-3C2 Fab (Fab, V domains shown, Human Fab format; constant parts not restated) VH: EVQLVESGGGLVQPGGSLRLSCAVSGFSLTSYGVHWVRQAPGKGLEWVAVIWAGGSTNYADSVKGRFTISKDNSKNTVYLQMNSLRAEDTAVYYCAKPYGNSAMDYWGQGTLVTVSS VL: DIQMTQSPSSLSASVGDRVTITCKASQDVGIVVAWYQQKPGKAPKLLIYWASIRHTGVPSRFSGSGSGTEFTLTISSLQPDDFATYYCQQYSNYPLYTFGQGTKVEIK	1.15e-05
hu333-4A2 Fab (Fab, V domains shown, Human IgG1 Fab format: Vh fused to human IgG1-CH1 with C-terminal His6 tag, Vk fused to the constant region of kappa chain) VH: EVQLVESGGGLVQPGGSLRLSCAVSGFSLTSYGVHWVRQAPGKGLEWVAVIWAGGSTNYVDSVKGRFTISKDNAKNTVYLQMNSLRAEDTAVYYCAKPYGTSAMDYWGQGTLVTVSS VL: DIQMTQSPSSLSASVGDRVTITCKASQDVGIVVAWYQQKPGKAPKLLIYWASIRHTGVPSRFSGSGSGTEFTLTISSLQPDDFATYYCQQYSNYPLYTFGQGTKVEIK	1.03e-05
hu333-3A2 Fab (Fab, V domains shown, Human Fab format; constant parts not restated) VH: EVQLVESGGGLVQPGGSLRLSCAVSGFSLTSYGVHWVRQAPGKGLEWVAVIWAGGSTNYVDSVKGRLTISKDNAKNTVYLQMNSLRAEDTAVYYCAKPYGNSAMDYWGQGTLVTVSS VL: DIQMTQSPSSLSASVGDRVTITCKASQDVGIVVAWYQQKPGKAPKLLIYWASIRHTGVPSRFSGSGSGTEFTLTISSLQPDDFATYYCQQYSNYPLYTFGQGTKVEIK	2.2e-07
hu333-4B2 Fab (Fab, V domains shown, Human IgG1 Fab format: Vh fused to human IgG1-CH1 with C-terminal His6 tag, Vk fused to the constant region of kappa chain) VH: EVQLVESGGGLVQPGGSLRLSCAVSGFSLTSYGVHWVRQAPGKGLEWVAVIWAGGSTNYADSVKGRFTISKDTSKNTVYLQMNSLRAEDTAVYYCAKPYGTSAMDYWGQGTLVTVSS VL: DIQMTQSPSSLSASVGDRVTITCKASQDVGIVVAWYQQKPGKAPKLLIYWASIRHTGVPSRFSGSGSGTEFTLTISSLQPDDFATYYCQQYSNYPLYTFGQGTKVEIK	1.32e-05

As a next step, examine the binder that follows.
Fill blank: measured koff of the binder hu333-3H2 Fab (Fab, V domains shown, Human Fab format; constant parts not restated) VH: EVQLVESGGGLVQPGGSLRLSCAVSGFSLTSYGVHWVRQAPGKGLEWVAVIWAGGSTNYADSVKGRFTISKDTSKNTVYLQMNSLRAEDTAVYYCAKPYGNSAMDYWGQGTLVTVSS VL: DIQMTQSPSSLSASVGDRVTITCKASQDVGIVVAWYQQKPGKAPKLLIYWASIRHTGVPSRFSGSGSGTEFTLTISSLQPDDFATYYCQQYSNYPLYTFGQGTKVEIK is ____.
4.61e-05
